Target: FPR2 (Homo sapiens, UniProt P25090)
Sequence (P25090 1-351): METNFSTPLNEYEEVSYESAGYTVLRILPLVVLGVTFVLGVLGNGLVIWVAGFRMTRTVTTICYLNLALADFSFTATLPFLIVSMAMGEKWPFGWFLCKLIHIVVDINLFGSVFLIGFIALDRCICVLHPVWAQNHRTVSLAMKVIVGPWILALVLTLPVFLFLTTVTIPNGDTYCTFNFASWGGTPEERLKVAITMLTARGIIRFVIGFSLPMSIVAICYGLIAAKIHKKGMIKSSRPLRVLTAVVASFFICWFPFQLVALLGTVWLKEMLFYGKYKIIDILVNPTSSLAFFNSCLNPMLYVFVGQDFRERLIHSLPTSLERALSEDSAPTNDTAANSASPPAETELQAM
Test: Ca2+ mobilization in FPR2-transfected HL60 cells
Assay type: cell-based
As shown below, each of these molecules has a reported EC50 value.

MOLECULE: COc1cccc(NC(=O)c2cc(C#N)c(=O)n(CC(=O)Nc3ccc(Br)cc3)c2C)c1
TARGET ENTITY: FPR2 (Homo sapiens, UniProt P25090)
EC50: 310 nM
--
MOLECULE: COc1ccc(NC(=O)c2cc(C#N)c(=O)n(CC(=O)Nc3ccc(Br)cc3)c2C)cc1
TARGET ENTITY: FPR2 (Homo sapiens, UniProt P25090)
EC50: 440 nM
--
MOLECULE: COc1ccc(-c2cc(C#N)c(=O)n(CC(=O)Nc3ccc(Br)cc3)c2C)cc1
TARGET ENTITY: FPR2 (Homo sapiens, UniProt P25090)
EC50: 480 nM
--
MOLECULE: CCOC(=O)c1cc(C(=O)Nc2ccc(OC)cc2)c(=O)n(CC(=O)Nc2ccc(Br)cc2)c1C
TARGET ENTITY: FPR2 (Homo sapiens, UniProt P25090)
EC50: 16400 nM
--
MOLECULE: CCCn1ccc(=O)n(CC(=O)Nc2ccc(Br)cc2)c1=O [Compound 11d]
TARGET ENTITY: FPR2 (Homo sapiens, UniProt P25090)
EC50: 4100 nM
--
MOLECULE: COc1cccc(NC(=O)c2cc(-c3ccncc3)c(C)n(CC(=O)Nc3ccc(Br)cc3)c2=O)c1
TARGET ENTITY: FPR2 (Homo sapiens, UniProt P25090)
EC50: 1800 nM
--
MOLECULE: CCOC(=O)c1cc(C(=O)Nc2cccc(OC)c2)c(=O)n(CC(=O)Nc2ccc(Br)cc2)c1C
TARGET ENTITY: FPR2 (Homo sapiens, UniProt P25090)
EC50: 28900 nM
--
MOLECULE: COc1ccc(-c2cc(C#N)c(=O)n(CC(=O)Nc3ccc(Br)cc3)c2C)cc1OC
TARGET ENTITY: FPR2 (Homo sapiens, UniProt P25090)
EC50: 600 nM
